Each record here notes measured EC50.
Biological target: T1, hCD19-his (human CD19 recombinant protein, Pro20-Lys291, His tag at C-terminus) (human, UniProt P15391 20-291)
T1 construct: range 20-291; also called human CD19-His
T1 sequence (looked up): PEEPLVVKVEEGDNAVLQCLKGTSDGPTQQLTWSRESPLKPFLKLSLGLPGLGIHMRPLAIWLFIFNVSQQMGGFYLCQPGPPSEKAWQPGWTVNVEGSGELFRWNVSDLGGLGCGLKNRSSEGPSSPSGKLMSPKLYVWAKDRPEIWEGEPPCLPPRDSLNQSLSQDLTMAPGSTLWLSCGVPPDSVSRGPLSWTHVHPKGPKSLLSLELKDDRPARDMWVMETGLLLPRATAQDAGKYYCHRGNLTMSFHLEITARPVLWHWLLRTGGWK
Assay: ELISA, coated hCD19-His
Method: The antibodies were screened by ELISA according to Example 2. Briefly, […] of hCD19-His (ACRO) were spread and incubated. The purified antibodies were serially diluted to bind the incubated antigen. The binding signal of each antibody could be detected with HRP-labeled goat anti-rat Fc antibody. Graphpad Prism software was used to calculate the fitting data.
Response body: numeric value in µg/mL, unit text excluded.

[
  {
    "BINDER": "19D6 (antibody, V domains shown, hybridoma mAb from H2L2 mouse (human variable, rat constant regions)) VH: QVQLVESGGGVVQPGRSLRLSCAASGFTFSRHGMHWVRQAPGKGLEWVAVIWYDGSNKYYVDSVKGRFTISRDNSKNTLDLQMNSLRAEDTAVYYCARRSITWDGAFDIWGQGTMVTVSS VL: DIQMTQSPSTLSASVGDRVTVTCRASQSIRSWLAWYQQKPGKAPKLLIYKASSLESGVPSRFSGSGSGTEFTLTISSLQPDDFATYYCQQYNSAYTFGQGTKLEIK",
    "PROPERTY": "EC50",
    "ENDPOINT_VALUE": 0.0737
  },
  {
    "BINDER": "52F9 (hybridoma antibody) (antibody, V domains shown, hybridoma mAb from H2L2 mouse (human variable, rat constant regions)) VH: QVQLVESGGGVVQAGRSLRLSCAASGFTFSNYGIHWVRQAPGKGLEWVGVIWHDGSIKNYADFVKGRFTISRDNSEDTLYLQMNSLRAEDTAVYYCAREQGNYYGWGSYKAFDIWGQGTMVTVSS VL: DIQLTQSPSFLSVFVGDRVTITCRASQGISNYLAWYQQKPGKAPELLLYATSTLQSGVPSRLSGSGSGTEFTLTLSSLQPEDFATYYCQQVYSFPYTFGQGTKLEIK",
    "PROPERTY": "EC50",
    "ENDPOINT_VALUE": 0.0592
  }
]

Please turn your attention to the following entry.
Request: In one line, give reported EC50 of the entry 17B6 (hybridoma antibody) (antibody, V domains shown, hybridoma mAb from H2L2 mouse (human variable, rat constant regions)) VH: QVQLVESGGGVVQPGRSLRLSCEASGFTFSRHGMHWVRQAPGKGLEWVAVIFYDGSQNYYADSVRGRFTISRDNSKNTLSLQMDSLRAEDTAVYYCARRSITWNGGFDIWGQGTMVTVSP VL: DIQMTQSPSTLSASVGDRVTITCRASQSISSWLAWYQQKPGKAPKLLIYKASSLESGVPSRFSGSGSGTEFTLAISSLQPDDFATYYCQQYNRFYTFGQGTKLEIK .
Result: 0.176

// data source = patent US20210238253A1
